Origin of values: PubChem BioAssay AID330

System: P388 leukemia ip, CD2F1 mice, survival T/C
procedure_text: NCI In Vivo Anticancer Drug Screen. Data for tumor model P388 Leukemia (intraperitoneal) in CD2F1 (CDF1) mice
run_parameters: endpoint: median survival time; dose: 200.0 mg/kg/injection; schedule: Q01DX009 (ip); vehicle: water; higher = longer survival
Toxic doses and inconclusive results are not listed.

compound | T/C
CN(CNC(N)=O)N=O | 107 % of control
CN(C)C(CC(N)=O)C(=O)O (stereo not given) | 97 % of control
CN(C)CCSc1cc(O)c2c(c1O)C(=O)c1ccccc1C2=O | 97 % of control
CN(c1ccccc1)c1cc(O)[nH]c(=O)c1 | 97 % of control
O=NNc1c2c(nc3ccccc13)CCCC2 | 89 % of control

* * *

The following compounds are shown together with reported T/C values.
System: P388 leukemia ip, CD2F1 mice, survival T/C
procedure_text: NCI In Vivo Anticancer Drug Screen. Data for tumor model P388 Leukemia (intraperitoneal) in CD2F1 (CDF1) mice
run_parameters: endpoint: median survival time; dose: 100.0 mg/kg/injection; schedule: Q01DX005 (ip); vehicle: saline with Tween-80; higher = longer survival
Inconclusive results and toxic doses are left out.

compound | T/C
Cc1ccc2no[n+]([O-])c2c1[N+](=O)[O-] | 121 % of control
CCC(=O)C1C(=O)CC(=O)C(C)C1c1ccccc1OC (stereo unspecified) | 90 % of control
CC(=O)NC1CCCCC1C1CCC([N+](=O)[O-])CC1 (stereo unspecified) | 99 % of control
O=[N+]([O-])c1ccc(N2c3ccccc3SC23CCCC3)c([N+](=O)[O-])c1 | 100 % of control
N#C/C(N)=C(\C#N)N=Cc1ccc(N(CCCl)CCCl)cc1 | 104 % of control
O=[N+]([O-])c1cccc(/C=C/S(=O)(=O)Cc2ccccc2)c1 | 100 % of control
CC1(C)OC2C(CO)OC(n3c(Br)nc4c(N)ncnc43)C2O1 (stereo unspecified) | 103 % of control
CC(C)(NCc1ccccc1)C(=O)OC(C)(C)C(=O)NCc1ccccc1 | 95 % of control
Brc1ccc(/C=C/c2ccncc2)cc1 | 99 % of control
Cc1ccc(N/N=c2\c3nc4ccccc4nc2n(-c2ccccc2C)c(=S)n3-c2ccccn2)cc1 | 96 % of control
O=C(N=Nc1c(O)[nH]c2ccccc12)C(F)(F)F | 101 % of control

* * *

Test system: P388 leukemia ip, CD2F1 mice, survival T/C
procedure_text: NCI In Vivo Anticancer Drug Screen. Data for tumor model P388 Leukemia (intraperitoneal) in CD2F1 (CDF1) mice
run_parameters: endpoint: median survival time; dose: 12.5 mg/kg/injection; schedule: Q01DX009 (ip); vehicle: saline; higher = longer survival
Inconclusive results and toxic doses are left out.
measurement_name: T/C

molecule | meas_value
CCCCCCCCCCCCCCCC[N+](C)(C)CCOC(C)=O | 111 % of control
O=C(Nc1nc2ccc([N+](=O)[O-])cc2s1)C(F)(F)C(F)(F)F | 112 % of control
COC(=O)C(N)Cc1ccc(OCc2ccccc2)cc1 (stereo unspecified) | 102 % of control
c1cc[c]([Sn]([NH]c2ncnc3[nH]cnc23)([NH]c2ncnc3[nH]cnc23)[c]2ccccc2)cc1 | 123 % of control
O=NNc1ccc(Cl)nc1 | 106 % of control
CCCCCC(N)C(C)=O (stereo unspecified) | 110 % of control

* * *

System: P388 leukemia ip, CD2F1 mice, survival T/C
procedure_text: NCI In Vivo Anticancer Drug Screen. Data for tumor model P388 Leukemia (intraperitoneal) in CD2F1 (CDF1) mice
run_parameters: endpoint: median survival time; dose: 25.0 mg/kg/injection; schedule: Q01DX009 (ip); vehicle: saline
Toxic doses and inconclusive results are not listed. How the source made its calls: active means survival T/C of 150% or more; inactive means T/C below 125% in these data.
Outcomes: YES = active, NO = inactive

molecule | assigned_label
C=C(CSc1ccc(C(=O)O)c([N+](=O)[O-])c1)c1ccc([N+](=O)[O-])cc1 | NO
Nn1cn[nH]c1=S | NO
CC(=O)N(Cc1cnc2nc(N)[nH]c(=O)c2n1)c1ccc(C(=O)NC(CCC(=O)O)C(=O)O)cc1 (centres undefined) | NO
CC(=O)NNC(=O)C(Cl)Cl | NO
COC(=O)C(N)Cc1ccc(OCc2ccccc2)cc1 (centres undefined) | NO
CCN=c1cc2sc3cc(NCC)c(C)cc3nc-2cc1C | NO
CCCCCC(N)C(C)=O (centres undefined) | NO
CC(C)(N)CNc1ccccc1 | NO
Cc1cc(OC(=O)Nc2cc([N+](=O)[O-])ccc2C)c(C)cc1I | NO
CC(=O)Nc1ccc(C(O)C2=CC(=O)c3ccccc3C2=O)cc1 (centres undefined) | NO
CSC(N)=Nc1cccc2c1CCCC2 | NO
COc1ccccc1N=N/C(=N\Nc1ccccc1OC)C(=O)Nc1ccccc1 | NO
CC1(C)N=C(N)N=C(N)N1c1ccc(CCC(=O)Nc2ccc(S(=O)(=O)F)cc2)c(Cl)c1 | YES
Cl | NO

* * *

System: P388 leukemia ip, CD2F1 mice, survival T/C
procedure_text: NCI In Vivo Anticancer Drug Screen. Data for tumor model P388 Leukemia (intraperitoneal) in CD2F1 (CDF1) mice
run_parameters: endpoint: median survival time; dose: 50.0 mg/kg/injection; schedule: Q01DX009 (ip); vehicle: Klucel (hydroxypropylcellulose) (HPC); higher = longer survival
Inconclusive results and toxic doses are left out.
Listed here are compounds together with their documented T/C.

compound | measured_on | T/C
CC(=O)Nc1ccc(NC(=S)Nc2ccccc2C(F)(F)F)cc1 | P388 leukemia ip, CD2F1 mice, survival T/C | 96 % of control
CCOc1c/c(=N\N=C(/C)c2ccc(Cl)cc2)n(C)c(=O)n1C | P388 leukemia ip, CD2F1 mice, survival T/C | 93 % of control
C[As](C)SCCC(CCCCC(=O)O)S[As](C)C (stereo unspecified) | P388 leukemia ip, CD2F1 mice, survival T/C | 100 % of control
CC(C)(C)C(=O)/C=C/c1ccc(Cl)c(Cl)c1 | P388 leukemia ip, CD2F1 mice, survival T/C | 104 % of control
S=C(Nc1ccc2c(c1)OCO2)SCc1ccc(Cl)c(Cl)c1 | P388 leukemia ip, CD2F1 mice, survival T/C | 107 % of control
N#CCCSc1nnc(N)s1 | P388 leukemia ip, CD2F1 mice, survival T/C | 108 % of control

* * *

T/C: recorded values
Tested on: P388 leukemia ip, CD2F1 mice, survival T/C
procedure_text: NCI In Vivo Anticancer Drug Screen. Data for tumor model P388 Leukemia (intraperitoneal) in CD2F1 (CDF1) mice
run_parameters: endpoint: median survival time; dose: 6.25 mg/kg/injection; schedule: Q01DX005 (ip); vehicle: saline with Tween-80; higher = longer survival
Protocol: The antitumor activity of compounds was measured in mice bearing transplantable tumors. Survival or tumor size were measured and the results are expressed as the measurement made in the treated group (T) divided by the measurement made in the vehicle treated control group (C). The tumor model used in this assay is P388 Leukemia (intraperitoneal) in CD2F1 (CDF1) mice
Toxic doses and inconclusive results are not listed.

smiles_repr | T/C
Cc1ccc(N=C2c3ccccc3-c3ccc(NC(=O)c4ccccc4)cc32)cc1 | 93 % of control
[Cu+2].[NH-]C(=O)NC([NH-])=O.[NH-]C(=O)NC([NH-])=O | 99 % of control
COc1cc(NCCCCCCNC(C)C)c2ncccc2c1 | 100 % of control
O=[N+]([O-])c1ccc2c(ccc3sc4ccccc4[n+]32)c1 | 95 % of control
Cc1ccc(-n2c(=O)[nH]c3ccccc3c2=O)cc1[N+](=O)[O-] | 101 % of control
O=C1CN(c2ccccc2)CC(=O)N2Cc3ccccc3CN12 | 96 % of control

* * *

Test system: P388 leukemia ip, CD2F1 mice, survival T/C
procedure_text: NCI In Vivo Anticancer Drug Screen. Data for tumor model P388 Leukemia (intraperitoneal) in CD2F1 (CDF1) mice
run_parameters: endpoint: median survival time; dose: 100.0 mg/kg/injection; schedule: Q04DX002 (ip); vehicle: saline; higher = longer survival
Inconclusive results and toxic doses are left out.
measurement_name: T/C

compound | measurement_name | meas_value
Cc1csc(N)n1 | T/C | 97 % of control
CC12C(=O)C(Br)C1CC2S(=O)(=O)O (centres undefined) | T/C | 98 % of control
NC(CS(=O)(=O)O)C(=O)O (centres undefined) | T/C | 105 % of control
Cc1ccc(-c2c(C)c3c(c(C)c2-c2ccc(C)cc2)-c2ccccc2C3=O)cc1 | T/C | 100 % of control
O=C(O)C1CCC(CNCC2C(=O)OC3CCC4C(O)CC(O)C4CC32)CC1 (centres undefined) | T/C | 97 % of control
C=Cc1nc(=O)[nH]c(=O)[nH]1 | T/C | 101 % of control
Cc1ccc(C2(Br)C(=O)c3ccccc3C2=O)cc1 | T/C | 103 % of control
CSC(=S)N/N=C(C)\C=N/Nc1ccccc1 | T/C | 101 % of control
COc1ccc2c(C[N+](C)(C)CCC#N)cc(=O)oc2c1 | T/C | 100 % of control
